# System: S. pneumoniae D39V
# experiment-summary: Bliss interaction score (quartile over a dose matrix) (fitness difference); higher = more antagonism (negative = synergy);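 also: first quartile when negative (synergy) and third quartile when positive (antagonism)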
Recorded measurements of Bliss interaction score, one per entry
reported-metric: Bliss interaction score

compound="CN[C@H](CC(C)C)C(=O)N[C@H]1C(=O)N[C@@H](CC(N)=O)C(=O)N[C@H]2C(=O)N[C@H]3C(=O)N[C@H](C(=O)N[C@H](C(=O)O)c4cc(O)cc(O)c4-c4cc3ccc4O)[C@H](O[C@H]3C[C@](C)(N)[C@@H](O)[C@H](C)O3)c3ccc(c(Cl)c3)Oc3cc2cc(c3O[C@@H]2O[C@H](CO)[C@@H](O)[C@H](O)[C@H]2O[C@H]2C[C@](C)(NCc3ccc(-c4ccc(Cl)cc4)cc3)[C@@H](O)[C@H](C)O2)Oc2ccc(cc2Cl)[C@H]1O [Oritavancin] + Oc1cc(Cl)ccc1Oc1ccc(Cl)cc1Cl [Triclosan]" result_value=0.102
compound="CC[C@H]1OC(=O)[C@H](C)[C@@H](O[C@H]2C[C@@](C)(OC)[C@@H](O)[C@H](C)O2)[C@H](C)[C@@H](O[C@@H]2O[C@H](C)C[C@H](N(C)C)[C@H]2O)[C@](C)(O)C[C@@H](C)C(=O)[C@H](C)[C@@H](O)[C@]1(C)O [Erythromycin] + CO[C@H]1/C=C/O[C@@]2(C)Oc3c(C)c(O)c4c(O)c(c(/C=N/N5CCN(C)CC5)c(O)c4c3C2=O)NC(=O)/C(C)=C\\C=C\\[C@H](C)[C@H](O)[C@@H](C)[C@@H](O)[C@@H](C)[C@H](OC(C)=O)[C@@H]1C [Rifampicin]" result_value=0.0763
compound="CC[C@H]1OC(=O)[C@H](C)[C@@H](O[C@H]2C[C@@](C)(OC)[C@@H](O)[C@H](C)O2)[C@H](C)[C@@H](O[C@@H]2O[C@H](C)C[C@H](N(C)C)[C@H]2O)[C@](C)(O)C[C@@H](C)C(=O)[C@H](C)[C@@H](O)[C@]1(C)O [Erythromycin] + CO[C@@]12[C@H](COC(N)=O)C3=C(C(=O)C(C)=C(N)C3=O)N1C[C@@H]1N[C@@H]12 [MitomycinC]" result_value=-0.0897

----------
# Tested on: S. aureus DSM 20231
# experiment-summary: Bliss interaction score (quartile over a dose matrix) (fitness difference); higher = more antagonism (negative = synergy)
In this section, each of the compounds is paired with its reported Bliss interaction score.
reported-metric: Bliss interaction score

compound="CC(=O)NC[C@H]1CN(c2ccc(N3CCOCC3)c(F)c2)C(=O)O1 [Linezolid] + CN[C@H](CC(C)C)C(=O)N[C@H]1C(=O)N[C@@H](CC(N)=O)C(=O)N[C@H]2C(=O)N[C@H]3C(=O)N[C@H](C(=O)N[C@H](C(=O)O)c4cc(O)cc(O)c4-c4cc3ccc4O)[C@H](O)c3ccc(c(Cl)c3)Oc3cc2cc(c3O[C@@H]2O[C@H](CO)[C@@H](O)[C@H](O)[C@H]2O[C@H]2C[C@](C)(N)[C@H](O)[C@H](C)O2)Oc2ccc(cc2Cl)[C@H]1O [Vancomycin]" result_value=0.0467
compound="CC[C@H]1OC(=O)[C@H](C)[C@@H](O[C@H]2C[C@@](C)(OC)[C@@H](O)[C@H](C)O2)[C@H](C)[C@@H](O[C@@H]2O[C@H](C)C[C@H](N(C)C)[C@H]2O)[C@](C)(O)C[C@@H](C)C(=O)[C@H](C)[C@@H](O)[C@]1(C)O [Erythromycin] + CCN(CC)CCOC(=O)c1ccc(N)cc1 [Procaine]" result_value=-0.0573
compound="CO[C@H]1/C=C/O[C@@]2(C)Oc3c(C)c(O)c4c(O)c(c(/C=N/N5CCN(C)CC5)c(O)c4c3C2=O)NC(=O)/C(C)=C\\C=C\\[C@H](C)[C@H](O)[C@@H](C)[C@@H](O)[C@@H](C)[C@H](OC(C)=O)[C@@H]1C [Rifampicin] + CN[C@@H]1[C@H](O[C@H]2[C@H](O[C@H]3[C@H](O)[C@@H](O)[C@H](N=C(N)N)[C@@H](O)[C@@H]3N=C(N)N)O[C@@H](C)[C@]2(O)C=O)O[C@@H](CO)[C@H](O)[C@H]1O [Streptomycin]" result_value=-0.0315
compound="CC[C@H]1OC(=O)[C@H](C)[C@@H](O[C@H]2C[C@@](C)(OC)[C@@H](O)[C@H](C)O2)[C@H](C)[C@@H](O[C@@H]2O[C@H](C)C[C@H](N(C)C)[C@H]2O)[C@](C)(O)C[C@@H](C)C(=O)[C@H](C)[C@@H](O)[C@]1(C)O [Erythromycin] + O=C1CN(/N=C/c2ccc([N+](=O)[O-])o2)C(=O)N1 [Nitrofurantoin]" result_value=-0.0518
compound="CO[C@@]12[C@H](COC(N)=O)C3=C(C(=O)C(C)=C(N)C3=O)N1C[C@@H]1N[C@@H]12 [MitomycinC] + COc1cc(Cc2cnc(N)nc2N)cc(OC)c1OC [Trimethoprim]" result_value=-0.102
compound="CO[C@H]1/C=C/O[C@@]2(C)Oc3c(C)c(O)c4c(O)c(c(/C=N/N5CCN(C)CC5)c(O)c4c3C2=O)NC(=O)/C(C)=C\\C=C\\[C@H](C)[C@H](O)[C@@H](C)[C@@H](O)[C@@H](C)[C@H](OC(C)=O)[C@@H]1C [Rifampicin] + Cn1nnc(-c2ccc(-c3ccc(N4C[C@H](CO)OC4=O)cc3F)cn2)n1 [Tedizolid]" result_value=0.0203
compound="CO[C@H]1/C=C/O[C@@]2(C)Oc3c(C)c(O)c4c(O)c(c(/C=N/N5CCN(C)CC5)c(O)c4c3C2=O)NC(=O)/C(C)=C\\C=C\\[C@H](C)[C@H](O)[C@@H](C)[C@@H](O)[C@@H](C)[C@H](OC(C)=O)[C@@H]1C [Rifampicin] + Cc1cc(NS(=O)(=O)c2ccc(N)cc2)no1 [Sulfamethoxazol]" result_value=-0.0278
